# Tested on: TA102
# Assay comment: Ames test, strain TA102
# Assay type: cell-based
# Settings: 500 μg/dish
Label true (1) when TA102 −S9 is strictly below 100; otherwise label false (0).

1. O=c1c2ccc(Cl)cc2[se]n1-c1ccncc1: false (0)
2. O=c1c2cc(Cl)ccc2[se]n1-c1ccccn1: true (1)
3. O=c1c2cc(F)ccc2[se]n1-c1cccnc1: false (0)
4. O=c1c2cc(F)ccc2[se]n1-c1ccccn1: false (0)

# ---- query compound ----
Challenge: Just wondering, is TA102 −S9 of "C/C(=N\O)c1ccc(-n2[se]c3ccccc3c2=O)cc1" below 100?
Response given: false (0)
